Provenance of the data: patent US20130302399A1

Molecular target: T1, human Proprotein Convertase Subtilisin-like/Kexin type 9 (human, UniProt Q8NBP7 31-692, limits assumed)
T1 construct: Biotinylated in the ELISAs; unlabelled analyte in BLI and SPR; also called human PCSK9; PCSK9
T1 sequence (Q8NBP7 31-692 limits assumed): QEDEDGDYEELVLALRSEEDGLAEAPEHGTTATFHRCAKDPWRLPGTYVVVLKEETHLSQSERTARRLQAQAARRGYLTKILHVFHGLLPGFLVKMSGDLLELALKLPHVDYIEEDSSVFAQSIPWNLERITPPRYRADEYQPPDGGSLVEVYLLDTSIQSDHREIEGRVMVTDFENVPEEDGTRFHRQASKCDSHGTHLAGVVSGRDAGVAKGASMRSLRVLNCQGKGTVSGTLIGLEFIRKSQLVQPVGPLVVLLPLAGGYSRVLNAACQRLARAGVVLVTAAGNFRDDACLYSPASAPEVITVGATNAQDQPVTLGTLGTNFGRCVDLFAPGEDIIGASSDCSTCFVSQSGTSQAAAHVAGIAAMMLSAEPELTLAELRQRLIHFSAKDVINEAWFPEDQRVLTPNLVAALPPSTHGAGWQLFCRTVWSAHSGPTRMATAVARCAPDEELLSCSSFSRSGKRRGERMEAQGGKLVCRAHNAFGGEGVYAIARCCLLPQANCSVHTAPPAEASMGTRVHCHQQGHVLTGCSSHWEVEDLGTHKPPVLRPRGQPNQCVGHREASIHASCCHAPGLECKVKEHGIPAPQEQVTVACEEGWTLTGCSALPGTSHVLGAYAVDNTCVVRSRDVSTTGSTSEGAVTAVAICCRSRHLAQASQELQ
Assay: BLI (Octet QK), biotinylated antibody on streptavidin sensors, human PCSK9 in solution, 1:1 fit
parameter: pKd
One number for each entry, as −log10 of the molar value.

Worked examples, 3 binders total:
- binder: "Ab9 (antibody, human IgG1, kappa, N297A, V domains shown, also called antibody Ab9) VH: QSVEESGGRLVTPGTPLTLTCTVSGIDLSSYAMGWVRQAPGKGLEYIGIIVSYGPTYYASWAKGRFTISKTSTTVDLKITSPTAEDTATYFCARDLDANSSGYYGCFNIWGQGTLVTVSS VL: AVVLTQTPASVSAAVGGTVTIKCQASQSISTALAWYQQKPGQPPKLLIYAASPLASGVSSRFKSSGSGTEFTLTISDLECADAATYYCQSYYGSSNIAFGGGTELEILR"
  assay_value: 9.20
- binder: "Ab1 (antibody, human IgG1, kappa, N297A, V domains shown, also called antibody Ab1) VH: QSVEESGGRLVTPGTPLTLTCTVSGFSLSSYWMTWVRQAPGKGLEYIGIISSSGSTYYATWAKGRFTISKTSSTTVDLEITSPTTEDTATYFCARDSAFSSGLEFNIWGPGTLVTVSS VL: AYDLTQTPASVEVAVGGTVTIKCQASQSVYSNWLSWYQQKPGQPPKLLIYDASDLASGVPSRFKGSGSGTQFTLTISGVQCDDAATYYCQQGQSSSDIDNTFGGGTEVVVKR"
  assay_value: 8.10
- binder: "Ab2 (antibody, human IgG1, kappa, N297A, V domains shown, also called antibody Ab2) VH: QSVEESGGRLVTPGTPLTLTCTVSGFSLSSYAMSWVRQAPGKGLEWIGIIDAIDNTYYASWAKGRFTISKTSTTVDLKMTSLTTGDTATYFCARASILGYSIATGFNIWGPGTLVTVSS VL: AYDMTQTPASVEVAVGGTVTIKCQASQSISSHLAWYQQKSGQPPKLLIYRASTLESGVSSRFKGSGSGTEFTLTISDLECADAATYYCQQGYGVSDVDNGFGGGTEVVVKR"
  assay_value: 8.37

Now turn to the next binder.
Exercise: Please supply the value of reported pKd for the item Ab16 (antibody, human IgG1, kappa, N297A, V domains shown, also called antibody Ab16) VH: QEQLVESGGGLVQPEGSLTLTCTASGFSFSSDYWICWVRQAPGKGLEWIGCIRDGGGSYYANWAKGRLTISMTSSTTVGLKMTSLTAADTATYFCASDINDGWLGQFNLWGPGTLVTVSS VL: DIVMTQTPASVEAAVGGTVTIKCQASQSISSYLAWYQQKPGQPPKLLIYRASTLASGVPSRFSGSGSGTEFTLTISDLECADAATYYCQSYYSVTTVTYGNTFGGGTEVVVKR
Key: 8.89
